- test-protocol: Volume of distribution in Sprague-Dawley rat
- Format: ADME
- particulars: in vivo
measurement-label: Vd (L/kg)

Query: State the recorded Vd for this entry: CN1CC[C@@](O)(C#Cc2cccc(-n3nc(C(N)=O)c4cccnc43)c2)C1=O
Result: 2.9

Query: Which Vd is reported for this compound? CN1C(=O)[C@](O)(C#Cc2cccc(-n3nc(C(N)=O)c4cccnc43)c2)[C@H]2C[C@H]21
Result: 2.6

---

- test-protocol: Half life in iv dosed C57BL/6J mouse
- Assay type: ADME, organism-based
- particulars: in vivo
measurement-label: half-life (h)
// units = h; emit number, no label

Query: Which measured half-life value corresponds to CN1C(=O)[C@](O)(C#Cc2cccc(-n3nc(C(N)=O)c4cccnc43)c2)[C@H]2C[C@H]21 ?
Result: 1.5
